Each recorded value in this set is attributed to patent US12448389B2.

The following molecules are listed with their measured Dmax values.
# assay.target: SMARCA4-HiBiT (Homo sapiens, UniProt P51532)
# Construct: SMARCA4-HiBiT knock-in Hela monoclonal cell (CS3023226); host or cells: HeLa monoclonal knock-in line (CRISPR HiBiT knock-in at the endogenous locus, heterozygous)
# Sequence (P51532 whole entry): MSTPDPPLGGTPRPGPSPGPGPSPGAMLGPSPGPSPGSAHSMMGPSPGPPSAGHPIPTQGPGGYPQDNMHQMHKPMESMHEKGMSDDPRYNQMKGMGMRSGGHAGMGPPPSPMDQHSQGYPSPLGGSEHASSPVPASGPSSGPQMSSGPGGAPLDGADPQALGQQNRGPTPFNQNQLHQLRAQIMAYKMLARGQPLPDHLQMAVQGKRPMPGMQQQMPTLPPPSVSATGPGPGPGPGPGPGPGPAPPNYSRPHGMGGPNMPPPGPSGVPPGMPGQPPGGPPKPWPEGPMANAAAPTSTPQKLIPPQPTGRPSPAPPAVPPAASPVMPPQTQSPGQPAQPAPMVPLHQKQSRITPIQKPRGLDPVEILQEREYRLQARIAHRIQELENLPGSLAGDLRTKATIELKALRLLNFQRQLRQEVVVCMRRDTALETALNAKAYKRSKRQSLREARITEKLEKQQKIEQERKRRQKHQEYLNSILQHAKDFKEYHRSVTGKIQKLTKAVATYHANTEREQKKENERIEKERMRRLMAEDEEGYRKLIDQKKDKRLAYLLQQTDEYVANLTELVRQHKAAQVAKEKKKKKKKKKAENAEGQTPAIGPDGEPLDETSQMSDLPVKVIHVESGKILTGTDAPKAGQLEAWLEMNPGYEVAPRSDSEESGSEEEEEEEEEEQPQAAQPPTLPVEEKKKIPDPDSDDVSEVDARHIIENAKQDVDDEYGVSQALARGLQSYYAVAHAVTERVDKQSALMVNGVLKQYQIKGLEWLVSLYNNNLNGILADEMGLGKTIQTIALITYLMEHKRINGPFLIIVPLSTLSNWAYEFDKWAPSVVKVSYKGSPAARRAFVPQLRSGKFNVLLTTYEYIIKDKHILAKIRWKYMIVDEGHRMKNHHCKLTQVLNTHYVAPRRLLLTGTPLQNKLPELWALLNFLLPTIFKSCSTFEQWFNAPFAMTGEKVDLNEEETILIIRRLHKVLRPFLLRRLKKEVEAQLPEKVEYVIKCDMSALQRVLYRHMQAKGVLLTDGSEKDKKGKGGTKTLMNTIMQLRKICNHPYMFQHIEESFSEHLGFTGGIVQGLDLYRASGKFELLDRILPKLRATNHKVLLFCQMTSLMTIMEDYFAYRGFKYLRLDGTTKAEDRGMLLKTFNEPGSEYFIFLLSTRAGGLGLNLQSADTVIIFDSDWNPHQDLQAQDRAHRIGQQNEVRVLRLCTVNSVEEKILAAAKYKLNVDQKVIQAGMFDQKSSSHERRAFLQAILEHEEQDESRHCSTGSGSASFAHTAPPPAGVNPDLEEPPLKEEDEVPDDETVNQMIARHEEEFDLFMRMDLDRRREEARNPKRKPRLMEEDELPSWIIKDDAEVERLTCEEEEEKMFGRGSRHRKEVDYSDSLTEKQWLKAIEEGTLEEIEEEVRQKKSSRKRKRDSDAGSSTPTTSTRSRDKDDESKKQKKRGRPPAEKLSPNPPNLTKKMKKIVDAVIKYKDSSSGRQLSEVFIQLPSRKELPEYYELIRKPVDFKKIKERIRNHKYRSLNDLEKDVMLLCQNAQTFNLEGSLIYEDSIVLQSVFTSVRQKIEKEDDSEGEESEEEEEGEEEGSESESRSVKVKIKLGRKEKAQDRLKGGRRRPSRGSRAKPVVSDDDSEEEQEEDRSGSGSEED
# measurement.description: SMARCA4 HiBiT degradation assay in HeLa cells
# Format: cell-based
# experimental.setup: HeLa, 18 hours incubation, read-out: HeLa-HiBit-SM4 Dmax (%)

CC1(C)CN(c2ccc3c(c2)C(=O)N(C2CCC(=O)NC2=O)C3=O)CCC1CN1CCC(CN2CCN3c4cc(-c5ccccc5O)nnc4NC[C@H]3C2)CC1 (stereo partly drawn)    > 85%
O=C1CCC(N2C(=O)c3ccc(N4CCC(CN5CCC(CN6CCN7c8cc(-c9ccccc9O)nnc8NC[C@H]7C6)C5)CC4)cc3C2=O)C(=O)N1 (stereo partly drawn)    75 to 85%
O=C1CCC(N2Cc3ccc(N4CC[C@H](CN5C[C@@H]6[C@H](C5)[C@H]6CN5CCN6c7cc(-c8ccccc8O)nnc7NC[C@H]6C5)[C@@H](F)C4)cc3C2=O)C(=O)N1 (stereo partly drawn)    > 85%
CC1(CN2C[C@@H]3[C@@H](CN4CCN5c6cc(-c7ccccc7O)nnc6NC[C@H]5C4)[C@@H]3C2)CN(c2ccc3c(c2)C(=O)N(C2CCC(=O)NC2=O)C3=O)CCO1 (stereo partly drawn)    75 to 85%
O=C1CCC(N2Cc3cc(OCCN4CCC(N5CCN6c7cc(-c8ccccc8O)nnc7NC[C@H]6C5)CC4)ccc3C2=O)C(=O)N1 (stereo partly drawn)    75 to 85%

Now take the following molecule into account.
QUERY: Field request: Dmax | item: O=C1CCC(n2c3ccc(CCCN4CCC(N5CCN(C6C[C@@H]7CNc8nnc(-c9ccccc9O)cc8N7C6)CC5)CC4)cc3c3cccnc32)C(=O)N1 (stereo partly drawn)
RESULT: 50 to 75%

----------
# assay.target: SMARCA2-HiBiT (Homo sapiens)
# Construct: SMARCA2-HiBiT knock-in Hela monoclonal cell (CS302366); host or cells: HeLa monoclonal knock-in line (CRISPR HiBiT knock-in at the endogenous locus, heterozygous)
# Sequence (P51531 whole entry): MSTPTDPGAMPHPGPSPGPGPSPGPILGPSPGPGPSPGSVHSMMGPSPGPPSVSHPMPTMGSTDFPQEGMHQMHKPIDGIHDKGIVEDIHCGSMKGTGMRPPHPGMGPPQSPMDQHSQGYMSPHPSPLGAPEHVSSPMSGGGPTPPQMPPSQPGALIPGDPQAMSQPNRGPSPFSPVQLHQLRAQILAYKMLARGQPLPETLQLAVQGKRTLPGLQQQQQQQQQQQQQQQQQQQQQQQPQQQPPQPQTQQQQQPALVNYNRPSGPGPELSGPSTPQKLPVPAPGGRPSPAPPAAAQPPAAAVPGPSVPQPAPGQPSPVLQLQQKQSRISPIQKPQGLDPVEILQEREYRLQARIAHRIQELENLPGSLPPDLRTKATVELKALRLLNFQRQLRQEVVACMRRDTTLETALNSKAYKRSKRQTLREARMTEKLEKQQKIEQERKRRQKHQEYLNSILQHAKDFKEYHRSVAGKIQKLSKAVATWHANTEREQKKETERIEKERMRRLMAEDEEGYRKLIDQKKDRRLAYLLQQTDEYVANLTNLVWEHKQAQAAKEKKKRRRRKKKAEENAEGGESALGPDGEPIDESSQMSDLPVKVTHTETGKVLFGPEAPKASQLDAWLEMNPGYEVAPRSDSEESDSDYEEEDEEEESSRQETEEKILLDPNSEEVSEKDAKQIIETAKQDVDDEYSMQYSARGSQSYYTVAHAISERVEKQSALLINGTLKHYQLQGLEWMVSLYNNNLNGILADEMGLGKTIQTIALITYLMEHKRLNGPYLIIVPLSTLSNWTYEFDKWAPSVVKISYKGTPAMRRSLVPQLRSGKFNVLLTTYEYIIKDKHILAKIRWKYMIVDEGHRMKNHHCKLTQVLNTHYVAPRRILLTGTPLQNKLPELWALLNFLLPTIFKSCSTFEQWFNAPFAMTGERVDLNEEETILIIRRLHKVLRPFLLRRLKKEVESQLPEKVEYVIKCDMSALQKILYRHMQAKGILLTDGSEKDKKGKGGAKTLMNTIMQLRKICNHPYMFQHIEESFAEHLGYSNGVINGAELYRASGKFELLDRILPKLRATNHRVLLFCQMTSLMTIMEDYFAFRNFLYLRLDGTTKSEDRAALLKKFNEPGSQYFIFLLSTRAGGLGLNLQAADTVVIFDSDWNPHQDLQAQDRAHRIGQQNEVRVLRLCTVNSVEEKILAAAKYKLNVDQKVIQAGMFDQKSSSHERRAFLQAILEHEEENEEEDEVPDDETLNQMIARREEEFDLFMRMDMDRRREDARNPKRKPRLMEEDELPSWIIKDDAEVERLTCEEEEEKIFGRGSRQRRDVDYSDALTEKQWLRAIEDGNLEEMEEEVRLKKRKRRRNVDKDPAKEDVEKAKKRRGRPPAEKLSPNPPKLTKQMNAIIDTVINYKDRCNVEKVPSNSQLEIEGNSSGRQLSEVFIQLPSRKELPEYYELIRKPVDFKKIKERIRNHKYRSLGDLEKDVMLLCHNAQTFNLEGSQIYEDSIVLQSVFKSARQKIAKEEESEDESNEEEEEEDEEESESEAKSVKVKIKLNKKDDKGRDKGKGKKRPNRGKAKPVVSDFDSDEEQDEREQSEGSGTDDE
# measurement.description: SMARCA2 HiBiT degradation assay in HeLa cells
# Assay type: cell-based
# experimental.setup: HeLa, 18 hours incubation, read-out: HeLa-HiBit-SM2 Dmax (%)
The following compounds are listed with their measured Dmax values.

Study these solved cases before continuing.
O=C1CCC(N2C(=O)c3ccc(N4CCC5(CC4)CC(N4C[C@@H]6[C@@H](CN7CCN8c9cc(-c%10ccccc%10O)nnc9NC[C@H]8C7)[C@@H]6C4)C5)cc3C2=O)C(=O)N1 (stereo partly drawn)    > 85%
O=C1CCC(N2C(=O)c3ccc(N4CCC(CN[C@H]5C[C@@H](CN6CCN7c8cc(-c9ccccc9O)nnc8NC[C@H]7C6)C5)CC4)cc3C2=O)C(=O)N1 (stereo partly drawn)    > 85%

Now take the following compound into account.
QUERY: Field request: Dmax | item: O=C1CCC(N2C(=O)c3ccc(N4CC[C@H](CN5C[C@@H]6[C@H](C5)[C@H]6CN5CCN6c7cc(-c8c(O)cccc8F)nnc7NC[C@H]6C5)[C@@H](F)C4)cc3C2=O)C(=O)N1 (stereo partly drawn)
RESULT: 75 to 85%
